- Assay system: purified recombinant human PARP (Homo sapiens (Human))
- Sequence (P09874 whole entry): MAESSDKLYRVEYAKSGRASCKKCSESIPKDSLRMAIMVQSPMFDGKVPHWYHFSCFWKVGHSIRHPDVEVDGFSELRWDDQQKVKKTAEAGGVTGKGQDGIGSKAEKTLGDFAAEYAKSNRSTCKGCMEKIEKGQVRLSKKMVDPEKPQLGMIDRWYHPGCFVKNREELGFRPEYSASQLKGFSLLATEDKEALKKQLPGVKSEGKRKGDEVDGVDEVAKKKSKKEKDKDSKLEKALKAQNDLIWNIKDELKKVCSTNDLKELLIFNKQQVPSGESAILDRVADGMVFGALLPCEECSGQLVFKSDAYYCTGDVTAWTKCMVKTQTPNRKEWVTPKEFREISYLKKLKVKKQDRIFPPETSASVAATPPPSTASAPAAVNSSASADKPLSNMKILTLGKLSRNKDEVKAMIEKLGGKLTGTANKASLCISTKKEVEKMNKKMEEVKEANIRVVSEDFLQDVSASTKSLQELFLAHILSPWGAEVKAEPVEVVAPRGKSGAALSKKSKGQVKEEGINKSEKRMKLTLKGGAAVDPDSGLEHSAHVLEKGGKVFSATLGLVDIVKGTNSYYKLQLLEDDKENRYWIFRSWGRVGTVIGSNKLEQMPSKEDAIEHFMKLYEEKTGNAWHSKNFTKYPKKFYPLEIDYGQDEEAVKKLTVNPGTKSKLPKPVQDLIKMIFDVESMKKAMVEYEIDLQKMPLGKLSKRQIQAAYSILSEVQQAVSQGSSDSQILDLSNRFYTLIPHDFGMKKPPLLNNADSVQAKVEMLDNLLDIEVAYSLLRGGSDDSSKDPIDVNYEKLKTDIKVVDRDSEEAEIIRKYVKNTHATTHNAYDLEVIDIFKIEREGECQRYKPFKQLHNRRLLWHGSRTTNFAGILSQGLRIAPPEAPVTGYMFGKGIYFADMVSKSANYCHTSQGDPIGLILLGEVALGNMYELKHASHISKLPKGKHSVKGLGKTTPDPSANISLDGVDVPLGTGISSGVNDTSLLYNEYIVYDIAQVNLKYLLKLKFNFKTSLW
- Test details: PARP enzyme assay (IC50)
- Condition notes: approximate IC50 values
Recorded metric: IC50 (nM)

molecule=O=c1[nH]nc2c3c(cccc13)Oc1ccc(CN3CCC(O)CC3)cc1-2 recorded_metric=IC50 measured=40
molecule=CCN(CCO)Cc1ccc2c(c1)-c1n[nH]c(=O)c3cccc(c13)O2 recorded_metric=IC50 measured=100
molecule=CC(C)N1CCN(Cc2ccc3c(c2)-c2n[nH]c(=O)c4cccc(c24)O3)CC1 recorded_metric=IC50 measured=30
molecule=CCN(CC)CCN(C)Cc1ccc2c(c1)-c1n[nH]c(=O)c3cccc(c13)O2 recorded_metric=IC50 measured=100
molecule=O=C1CCN(Cc2ccc3c(c2)-c2n[nH]c(=O)c4cccc(c24)O3)CC1 recorded_metric=IC50 measured=120
molecule=O=c1[nH]nc2c3c(cccc13)Oc1ccc(CN3CC(O)C3)cc1-2 recorded_metric=IC50 measured=30
molecule=O=c1[nH]nc2c3c(cccc13)Oc1ccc(CN3CCN(c4ncccn4)CC3)cc1-2 recorded_metric=IC50 measured=30
molecule=O=c1[nH]nc2c3c(cccc13)Oc1ccc(CN3CCC(CCO)CC3)cc1-2 recorded_metric=IC50 measured=100
molecule=O=c1[nH]nc2c3c(cccc13)Oc1ccc(CN[C@H]3CC[C@H](O)CC3)cc1-2 recorded_metric=IC50 measured=30
molecule=O=C1CN(Cc2ccc3c(c2)-c2n[nH]c(=O)c4cccc(c24)O3)CCN1 recorded_metric=IC50 measured=20
molecule="O=c1[nH]nc2c3c(cccc13)Oc1ccc(CN3CCCC(O)C3)cc1-2 (stereo not shown)" recorded_metric=IC50 measured=50
molecule=O=c1[nH]nc2c3c(cccc13)Oc1ccc(CN3CCC4(CC3)OCCO4)cc1-2 recorded_metric=IC50 measured=100
molecule=CC(C)N(Cc1ccc2c(c1)-c1n[nH]c(=O)c3cccc(c13)O2)C(C)C recorded_metric=IC50 measured=300
molecule=COCCN1CCN(Cc2ccc3c(c2)-c2n[nH]c(=O)c4cccc(c24)O3)CC1 recorded_metric=IC50 measured=20
molecule=O=c1[nH]nc2c3c(cccc13)Oc1ccc(CNCCN3CCOCC3)cc1-2 recorded_metric=IC50 measured=50
molecule="O=c1[nH]nc2c3c(cccc13)Oc1ccc(CN3CCC(O)C3)cc1-2 (stereo not shown)" recorded_metric=IC50 measured=100
